Reported residual activity values are given for each entry in this list.
# target-or-system: ALK tyrosine kinase receptor (Homo sapiens)
# assay-context: at 1 µM
A number alone suffices; assume %.

Reference set, count: 5
molecule=Cc1nc2cc3nc(-c4cccs4)cnc3cc2n1C readout_number=93
molecule=Cc1cncc2cccc(S(=O)(=O)N3CCCN(C(=O)CN)C[C@H]3C)c12 readout_number=76
molecule=Oc1ccc(-c2nc(-c3ccc(F)cc3)c(-c3ccncc3)[nH]2)cc1 readout_number=83
molecule=O=Nc1c(-c2c(O)[nH]c3ccccc23)[nH]c2ccccc12 readout_number=52
molecule=O=C1NC(=O)c2cc(Nc3ccc(F)cc3)c(Nc3ccc(F)cc3)cc21 readout_number=84

-- ask Answer with the recorded residual activity of "COc1ccc(OC)c2c(=S)c3ccccc3[nH]c12" only.
-- reply 79

-- ask Hello, please tell me recorded residual activity for this one: "c1ccc(-c2n[nH]cc2-c2ccnc3ccccc23)nc1"
-- reply 85

-- ask Report measured residual activity; entry is "CC(C)n1cnc2c(NCc3ccccc3)nc(NCCCO)nc21"
-- reply 87

----------
# target-or-system: cGMP-dependent protein kinase 1 (Homo sapiens) (UniProt Q13976)
# Sequence (Q13976 whole entry): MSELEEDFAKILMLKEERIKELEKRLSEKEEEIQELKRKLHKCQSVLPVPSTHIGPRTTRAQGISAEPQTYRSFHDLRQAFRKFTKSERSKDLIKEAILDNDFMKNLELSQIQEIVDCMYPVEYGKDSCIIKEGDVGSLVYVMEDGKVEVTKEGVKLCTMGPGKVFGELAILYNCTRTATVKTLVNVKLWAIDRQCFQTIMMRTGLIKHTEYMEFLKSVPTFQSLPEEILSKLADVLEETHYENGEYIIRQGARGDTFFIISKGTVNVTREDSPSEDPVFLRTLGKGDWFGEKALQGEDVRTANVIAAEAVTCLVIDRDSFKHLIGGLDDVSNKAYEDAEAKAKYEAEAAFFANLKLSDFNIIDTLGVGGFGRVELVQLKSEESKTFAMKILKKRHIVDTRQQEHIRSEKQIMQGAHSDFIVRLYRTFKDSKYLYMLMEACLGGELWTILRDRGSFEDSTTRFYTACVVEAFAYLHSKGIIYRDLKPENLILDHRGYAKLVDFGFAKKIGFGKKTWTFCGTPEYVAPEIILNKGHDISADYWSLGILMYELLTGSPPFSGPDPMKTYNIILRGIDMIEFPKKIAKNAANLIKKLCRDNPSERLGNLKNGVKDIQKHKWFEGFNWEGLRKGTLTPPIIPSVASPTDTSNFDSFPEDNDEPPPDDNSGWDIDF
# assay-context: at 10 µM
Items are presented alongside their recorded residual activity.
All answers are understood in %, so give the number only.

# annotated cases, reported residual activity shown
compound=Nc1ccc2ncnc(NCCc3ccc(Oc4ccccc4)cc3)c2c1 reported_property="residual activity" readout_number=109
compound=Oc1ccc(Nc2nc(-c3ccc(Cl)cc3)cs2)cc1 reported_property="residual activity" readout_number=99
compound=Cc1cncc2cccc(S(=O)(=O)N3CCCN(C(=O)CN)C[C@H]3C)c12 reported_property="residual activity" readout_number=44
compound=Cc1ccc(S(=O)(=O)/C=C/C#N)cc1 reported_property="residual activity" readout_number=99
compound="O=C1Nc2ccccc2/C1=C1/Nc2ccccc2/C1=N\\OCCC(O)CO (stereo unspecified)" reported_property="residual activity" readout_number=19

-- ask Provide cGMP-dependent protein kinase 1 (Homo sapiens) (UniProt Q13976) residual activity reading for "CC[n+]1c(/C=C/N(C)c2ccccc2)n(-c2ccccc2)c2ccc(-c3nc4ccccc4s3)cc21" .
-- reply 80

-- ask Under cGMP-dependent protein kinase 1 (Homo sapiens) (UniProt Q13976): report residual activity of "O=Nc1c(-c2c(O)[nH]c3ccccc23)[nH]c2ccccc12" .
-- reply 67

-- ask Consider the compound "CC(=O)O/N=C1\C(=C2\C(=O)Nc3cc(Br)ccc32)Nc2ccccc21" tested on cGMP-dependent protein kinase 1 (Homo sapiens) (UniProt Q13976); state its residual activity.
-- reply 112

-- ask Specify residual activity for "Cn1nc2c3c(cccc31)C(=O)c1ccccc1-2" , system cGMP-dependent protein kinase 1 (Homo sapiens) (UniProt Q13976).
-- reply 95

-- ask Name the recorded residual activity of "O=c1c2ccccc2[nH]c(=S)n1CCN1CCC(=C(c2ccc(F)cc2)c2ccc(F)cc2)CC1" , assay system cGMP-dependent protein kinase 1 (Homo sapiens) (UniProt Q13976).
-- reply 103

-- ask Look up cGMP-dependent protein kinase 1 (Homo sapiens) (UniProt Q13976) data: residual activity of "COc1ccc(OC)c2c(=S)c3ccccc3[nH]c12" , then report it.
-- reply 109

----------
# target-or-system: AMP-activated protein kinase, AMPK (Homo sapiens) (UniProt P54646+O43741+P54619+Q9UGJ0+Q9Y478+Q13131+Q9UGI9)
# assay-context: at 10 µM
# Met = residual activity below 60% (exclusive); Not met = residual activity at/above 60%

-- ask Hello, I'm reviewing records and need to know if residual activity of "O=c1cc(-c2cccc3c2Sc2ccccc2S3)oc(N2CCOCC2)c1" is below 60%. Could you check?
-- reply Not met

-- ask Quick check: residual activity of "NC(=O)c1ccc2[nH]c(-c3ccc(Oc4ccc(Cl)cc4)cc3)nc2c1" under 60%?
-- reply Met

-- ask Check if residual activity falls below 60% for "CC(C)n1cnc2/c(=N/c3cccc(Cl)c3)nc(NCCO)[nH]c21" .
-- reply Met

-- ask Field: below-cutoff. Rule: recorded residual activity strictly less than 60%. Subject: "Cc1cc(Nc2nc(-c3ccccc3)nc3ccccc23)n[nH]1"
-- reply Met

-- ask # strict comparison: is reported residual activity < 60%? input = "CNc1cc2c(Nc3cccc(Br)c3)ncnc2cn1"
-- reply Not met

----------
List of residual activity values.
# target-or-system: Tyrosine-protein kinase ABL2 (Homo sapiens)
# assay-context: at 1 µM
Give the number; % is assumed, so skip it.

Here's what some known entries look like.
structure_smiles=CNc1cc2c(Nc3cccc(Br)c3)ncnc2cn1 reported_property="residual activity" unit_text=% readout_number=93
structure_smiles=Cn1nc2c3c(cccc31)C(=O)c1ccccc1-2 reported_property="residual activity" unit_text=% readout_number=102
structure_smiles=COc1ccc(OC)c2c(=S)c3ccccc3[nH]c12 reported_property="residual activity" unit_text=% readout_number=116
structure_smiles=Cn1cc(/C=C2\C(=O)Nc3ccc(S(N)(=O)=O)cc32)c2ccccc21 reported_property="residual activity" unit_text=% readout_number=57
structure_smiles=O=C1Nc2cc(Br)ccc2/C1=C1/Nc2ccccc2/C1=N\O reported_property="residual activity" unit_text=% readout_number=16
structure_smiles=COc1ccc(CNc2nc(N(CCO)CCO)nc3c2ncn3C(C)C)cc1 reported_property="residual activity" unit_text=% readout_number=113

-- ask Indicate its recorded residual activity; the molecule in question is "COc1ccc(C(=O)Nc2sc3c(c2C(N)=O)CCCC3)cc1OC"
-- reply 126

-- ask Complete the entry with residual activity for "O=C(Nc1cccc(Nc2cc(Nc3cccc(C(F)(F)F)c3)ncn2)c1)C1CC1"
-- reply 92

-- ask Give the reported residual activity for this molecule. "CN(C)c1ccc(/C=C2\C(=O)Nc3ccccc32)cc1"
-- reply 103

-- ask Read the entry "Oc1ccc(-c2nc(-c3ccc(F)cc3)c(-c3ccncc3)[nH]2)cc1" and write its reported residual activity.
-- reply 78

-- ask Give the measured residual activity for "Cc1ccc(S(=O)(=O)/C=C/C#N)cc1"
-- reply 91

-- ask Check the records and state residual activity for "c1ccc2c(-c3ccncc3)c[nH]c2c1"
-- reply 110

-- ask Please supply the value of reported residual activity for the item "CC[n+]1c(/C=C/N(C)c2ccccc2)n(-c2ccccc2)c2ccc(-c3nc4ccccc4s3)cc21"
-- reply 112

-- ask Item "Nc1nc(Nc2ccc(S(N)(=O)=O)cc2)nn1C(=S)Nc1c(F)cccc1F" : provide residual activity
-- reply -2

-- ask Give residual activity for the following molecule: "Nc1cccc(-c2cc3c(Oc4cccc(O)c4)ncnc3[nH]2)c1"
-- reply -3

-- ask Give me measured residual activity, please, for this molecule: "O=C1NC(=O)c2cc(Nc3ccc(F)cc3)c(Nc3ccc(F)cc3)cc21"
-- reply 90

-- ask Provide only the value of recorded residual activity for "CC#CC(=O)Nc1cc2c(Nc3ccc(F)c(Cl)c3)ncnc2cn1"
-- reply 118

----------
residual activity values, listed per item
# target-or-system: Mitogen-activated protein kinase 3 (Homo sapiens) (UniProt P27361)
# Sequence (P27361 whole entry): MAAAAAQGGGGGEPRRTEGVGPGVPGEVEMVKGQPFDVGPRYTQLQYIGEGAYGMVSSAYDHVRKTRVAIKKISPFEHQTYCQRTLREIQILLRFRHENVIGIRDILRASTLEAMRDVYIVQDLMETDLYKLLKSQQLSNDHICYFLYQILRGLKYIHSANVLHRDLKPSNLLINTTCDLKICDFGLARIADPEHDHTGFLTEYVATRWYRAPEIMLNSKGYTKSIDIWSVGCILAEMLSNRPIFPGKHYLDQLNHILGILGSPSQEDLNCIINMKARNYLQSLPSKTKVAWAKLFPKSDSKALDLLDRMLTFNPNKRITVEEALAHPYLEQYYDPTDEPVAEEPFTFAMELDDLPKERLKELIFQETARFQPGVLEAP
# assay-context: at 1 µM
# Description: Millipore: Percentage of residual kinase activity of MAPK3 at 1uM relative to control. Control inhibitor: ERK Inhibitor II at 30.0uM. Buffer: 25 mM Tris pH 7.5, 0.02 mM EGTA
Answer with a number only, understood to be in %.

# annotated cases, reported residual activity shown
structure_smiles=COc1ccc(C(=O)Nc2sc3c(c2C(N)=O)CCCC3)cc1OC reported_property="residual activity" unit_text=% readout_number=97
structure_smiles=Oc1n[nH]c2nnc(-c3c(-c4ccccc4)nn4ccccc34)cc12 reported_property="residual activity" unit_text=% readout_number=92
structure_smiles=Oc1ccc(Nc2nc(-c3ccc(Cl)cc3)cs2)cc1 reported_property="residual activity" unit_text=% readout_number=96
structure_smiles=Cn1nc2c3c(cccc31)C(=O)c1ccccc1-2 reported_property="residual activity" unit_text=% readout_number=83
structure_smiles=Cc1ccc(S(=O)(=O)/C=C/C#N)cc1 reported_property="residual activity" unit_text=% readout_number=97

-- ask Look up Mitogen-activated protein kinase 3 (Homo sapiens) (UniProt P27361) data: residual activity of "O=C(Nc1cccc(Nc2nccc(Nc3cccc(C(F)(F)F)c3)n2)c1)C1CC1" , then report it.
-- reply 89

-- ask Answer with residual activity of "O=[N+]([O-])c1ccc(-c2nc(-c3ccc(F)cc3)c(-c3ccncc3)[nH]2)cc1" measured for Mitogen-activated protein kinase 3 (Homo sapiens) (UniProt P27361).
-- reply 85

-- ask Lab note: Mitogen-activated protein kinase 3 (Homo sapiens) (UniProt P27361) assay, enter residual activity for "O=C1NC(=O)/C(=C/c2ccc3c(c2)OC(F)(F)O3)S1" here
-- reply 90

-- ask Return reported residual activity for target or system Mitogen-activated protein kinase 3 (Homo sapiens) (UniProt P27361), item "CO[C@H]1C[C@@H]2CC[C@@H](C)[C@@](O)(O2)C(=O)C(=O)N2CCCC[C@H]2C(=O)O[C@H]([C@H](C)C[C@@H]2CC[C@@H](O)[C@H](OC)C2)CC(=O)[C@H](C)/C=C(\C)[C@@H](O)[C@@H](OC)C(=O)[C@H](C)C[C@H](C)/C=C/C=C/C=C/1C" .
-- reply 83

-- ask Answer with residual activity of "N#C/C(=C(\N)Sc1ccc(N)cc1)c1ccccc1C(F)(F)F" measured for Mitogen-activated protein kinase 3 (Homo sapiens) (UniProt P27361).
-- reply 95

-- ask Give residual activity for "CCC(=O)Nc1ccc2ncnc(Nc3cccc(Br)c3)c2c1" tested on Mitogen-activated protein kinase 3 (Homo sapiens) (UniProt P27361).
-- reply 83
